Examples of molecules with documented melting point follow.

Consider the following illustrative entries.
molecule=Nc1ccc(SCC2CCCCC2)cc1[N+](=O)[O-] measured_result="80 to 82 °C"
molecule=CC(=O)OCC(=O)Nc1cccc(N2CCCCC2)c1C#N measured_result="90 to 92 °C"
molecule="CC1CC(N)=NN1c1ccc(Cl)cc1Cl (stereo not given)" measured_result="109 to 111 °C"

Hello, please tell me recorded melting point for this one: COC(=O)c1cc(C)cnc1Cl
31 to 33 °C

* * *

Examples of compounds with documented melting point follow.

compound=CS(=O)(=O)Nc1c(CC(=O)O)cccc1Oc1ccccc1Cl measured_result="159 to 163 °C"

Hello, please tell me recorded melting point for this one: CCCCn1c(=O)[nH]c2cccnc2c1=O
200 to 210 °C

Hello, please tell me recorded melting point for this one: C#Cc1cc(F)c(-n2c(=O)cc(C(F)(F)F)n(C)c2=O)cc1OCC
140 °C

Hello, please tell me recorded melting point for this one: COc1ccc(C2(C#Cc3ccc(C#N)s3)CCC(=O)CC2)cc1OC1CCCC1
106 to 107 °C

Hello, please tell me recorded melting point for this one: CCc1cc(Oc2ncc(C(F)(F)F)cc2Cl)nn1C(=O)NC
85 to 87 °C

Hello, please tell me recorded melting point for this one: O=C1c2ccccc2CCC1Cc1ccccc1 (stereo not drawn)
50 to 51 °C

Hello, please tell me recorded melting point for this one: NC(=O)c1nc(-c2ccccc2)c(-c2ccc(=O)[nH]n2)s1
> 250 °C

Hello, please tell me recorded melting point for this one: O=C(CC1=NCCN1)N1CCOc2ccc(S(=O)(=O)c3ccccc3)cc21
114 to 116 °C
